system: HaCat; assay: Cytotoxic Profiling of Annotated Libraries Using Quantitative High-Throughput Screening (AID 1296008); details: Five cell lines viability, CellTiter-Glo ATP luminescence, 48-72 h; stronger effect = lower value; also: nearly all actives have a fitted effect of over 60% in size
Results filed as inconclusive are left out.
max response vs -10%: less than gives condition met; not less than gives condition not met.

Is -10% strictly greater than the compound's reported max response? compound: COc1cc(C=CC(=O)O)ccc1O
condition met

Is -10% strictly greater than the compound's reported max response? compound: COc1cc2c(cc1OC)[C@@H]1Cc3ccc(OC)c(OC)c3CN1CC2
condition not met

Is -10% strictly greater than the compound's reported max response? compound: COc1cccc(OC)c1-c1cc(C(=O)NC2(C(=O)O)C3CC4CC(C3)CC2C4)nn1-c1ccnc2cc(Cl)ccc12 (stereo unspecified)
condition met

Is -10% strictly greater than the compound's reported max response? compound: CC(C)=CCCC(C)=CCCC(C)=CCCC(C)=CCCC(C)=CCCC(C)=CCCC(C)=CCCC(C)=CCCC(C)=CCO
condition not met

Is -10% strictly greater than the compound's reported max response? compound: CCn1c(-c2nonc2N)nc2cncc(CNC3CCNCC3)c21
condition met

Is -10% strictly greater than the compound's reported max response? compound: Cc1ccc2c(=O)c3cccc(CC(=O)O)c3oc2c1C
condition met

Is -10% strictly greater than the compound's reported max response? compound: NC[C@H]1O[C@H](O[C@@H]2[C@@H](O)[C@@H](O[C@H]3O[C@H](CO)[C@@H](O)[C@H](N)[C@@H]3O)[C@H](N)C[C@@H]2N)[C@H](O)[C@@H](O)[C@H]1O
condition not met

Is -10% strictly greater than the compound's reported max response? compound: C[C@H]1O[C@@H](n2cc(F)c(=O)[nH]c2=O)[C@H](O)[C@H]1O
condition met

Is -10% strictly greater than the compound's reported max response? compound: COc1ccc(CCN(C)CCCOc2ccc(S(=O)(=O)c3[nH]c4ccccc4c3C(C)C)cc2)cc1OC
condition not met

Is -10% strictly greater than the compound's reported max response? compound: Fc1ccc(CNc2ncnc3ccc(F)cc23)cc1
condition met

Is -10% strictly greater than the compound's reported max response? compound: Cn1cc(-c2ccc3nnc(Sc4ccc5ncccc5c4)n3n2)cn1
condition not met

====

test: Quantitative High-Throughput drug screen in 47 multiple myeloma cell lines against the NCATS MIPE library collection: KMS28PE_JCRB cell viability assay (AID 1918983); conditions: KMS28PE multiple myeloma viability, CellTiter-Glo ATP, 48 h; series mostly up to 45.8 µM; also: nearly all actives have a fitted effect of over 35% in size
Results filed as inconclusive are left out. Calls of active or inactive are those of the source. The call rests on the fitted dose curve; in most records, active means well fitted cell-killing curve with a large enough effect; inconclusive means small, poorly fitted or top-dose-only effect, or effect the other way; inactive means no such curve, though single readings can be large or run the other way.
Thanks in advance; please answer with one of these: true for active, false for inactive

For CCNC(=O)CCCC=CC[C@@H]1[C@H](C=CC(O)CCc2ccccc2)[C@@H](O)C[C@@H]1O (stereo partly specified) , which call appears in the assay record?
false

For CO[C@H]1/C=C\O[C@@]2(C)Oc3c(C)c(O)c4c(O)c(c(C=NN5CCN(C6CCCC6)CC5)c(O)c4c3C2=O)NC(=O)C(C)=CC=C[C@H](C)[C@H](O)[C@@H](C)[C@@H](O)[C@@H](C)[C@H](OC(C)=O)[C@H]1C , which call appears in the assay record?
true

For CC1(C)OC2CC3C4CC(F)C5=CC(=O)C=CC5(C)C4C(O)CC3(C)[C@]2(C(=O)CO)O1 (stereo partly specified) , which call appears in the assay record?
false

For OCCn1cc(-c2ccc3c(c2)CCC3=NO)c(-c2ccncc2)n1 , which call appears in the assay record?
false

For O=C(O)C1=CO[C@@H](O[C@@H]2O[C@H](CO)[C@H](O)[C@H](O)[C@H]2O)[C@@H]2C(CO)=CC[C@H]12 , which call appears in the assay record?
false

For CN(C)CCN(C)C(=O)c1ccc(NC(=O)Nc2ccc(-c3nc(N4CCOCC4)c4ccn(CC(F)(F)F)c4n3)cc2)cc1 , which call appears in the assay record?
true

For CNC1CCC(N(Cc2cccc(-c3ccncc3)c2)C(=O)c2sc3ccccc3c2Cl)CC1 (stereo unspecified) , which call appears in the assay record?
true

For CN[C@H]1[C@@H](O[C@@H]2[C@H](O[C@@H]3[C@@H](O)[C@@H](O)[C@@H](N=C(N)N)[C@@H](O)[C@@H]3N=C(N)N)O[C@H](C)[C@@]2(O)C=O)O[C@@H](CO)[C@@H](O)[C@H]1O , which call appears in the assay record?
false

For c1ccc(-c2oc3ncnc(NC[C@@H]4CCCO4)c3c2-c2ccccc2)cc1 , which call appears in the assay record?
true

For COc1ccc(-c2ccc3ncc4c(c3c2)n(-c2ccc(N3CCNCC3)c(C(F)(F)F)c2)c(=O)n4C)cn1 , which call appears in the assay record?
true

For C[C@@H]1CC=CC=CC=CC=C[C@@H](O[C@@H]2O[C@H](C)[C@@H](O)[C@H](N)[C@H]2O)C[C@@H]2O[C@](O)(C[C@@H](O)C[C@@H]3O[C@@H]3C=CC(=O)O1)C[C@H](O)[C@@H]2C(=O)O , which call appears in the assay record?
true

For c1cc(OCCN2CCCCC2)cc(-c2n[nH]c3ccc(-c4ncn[nH]4)cc23)c1 , which call appears in the assay record?
true

For CCOC(=O)N1c2ccc(C(F)(F)F)cc2[C@@H](N(Cc2cc(C(F)(F)F)cc(C(F)(F)F)c2)C(=O)OC)C[C@H]1CC , which call appears in the assay record?
true

For CC1(C)C(N(O)C(=O)Nc2ccc(Cl)cc2)N(c2ccc(Cl)cc2)C(=O)N1CC(=O)NN=CC=Cc1ccc([N+](=O)[O-])o1 (stereo unspecified) , which call appears in the assay record?
true

For CC(C)C[C@@H](C(=O)N[C@H](C(=O)OC1CCCC1)c1ccccc1)[C@H](O)C(=O)NO , which call appears in the assay record?
true

For CNc1nc(Nc2ccc(C(=O)N3CCOCC3)cc2OC)ncc1Cl , which call appears in the assay record?
false

For CCOC(=O)c1c(CSc2ccccc2)n(C)c2cc(Br)c(O)c(CN(C)C)c12 , which call appears in the assay record?
true

For Fc1ccc(CNc2ncnc3ccc(F)cc23)cc1 , which call appears in the assay record?
true

For C[C@@H]1O[C@@H](O[C@H]2CC[C@@]3(C)[C@H](CC[C@@H]4[C@H]3C[C@@H](O)[C@]3(C)[C@@H](C5=CC(=O)OC5)CC[C@]43O)C2)C[C@H](O)[C@@H]1O[C@H]1C[C@H](O)[C@H](O[C@H]2C[C@H](O)[C@@H](O)[C@@H](C)O2)[C@H](C)O1 (stereo in doubt) , which call appears in the assay record?
true

For CN(C)N=Nc1nc[nH]c1C(N)=O , which call appears in the assay record?
false

For COc1ccc(-c2cc3nccn3c(Nc3ncccc3C(N)=O)n2)cc1OC , which call appears in the assay record?
true

For CC(C)(C)c1nc(-c2cccc(NS(=O)(=O)c3c(F)cccc3F)c2F)c(-c2ccnc(N)n2)s1 , which call appears in the assay record?
false

For Cc1ccc(NC(=O)c2ccc(CN3CCN(C)CC3)cc2)cc1Nc1nc(-c2cccnc2)cs1 , which call appears in the assay record?
true

For COc1ccc(CCN(C)CCCOc2ccc(S(=O)(=O)c3[nH]c4ccccc4c3C(C)C)cc2)cc1OC , which call appears in the assay record?
true

For O=C1NC(=O)C(c2cnc3ccccn23)=C1c1cn2c3c(cccc13)CN(C(=O)N1CCOCC1)CC2 , which call appears in the assay record?
false

For CN(C)CCOc1cc(-c2cn[nH]c2)ccc1NC(=O)C1COc2ccccc2O1 (stereo unspecified) , which call appears in the assay record?
true

====

Tested on: Zika virus NS2B-NS3 protease (linked construct)
Assay: Primary screen NINDS Rhodamine qHTS for Zika virus inhibitors (AID 1347160); also: nearly all actives have a fitted effect of over 55% in size
Settings: purified NS2B-NS3 protease, Rhodamine110 substrate fluorescence; series mostly up to 57.1 µM
From the text: Avindra Nath, Ph.D., National Institute of Neurological Disorders and Stroke (NINDS), Bethesda, MD Radhakrishnan Padmanabhan, Ph.D., Georgetown University (GU), Washington D.C. Zika Virus causes congenital defects, including microcephaly and is associated with Guillain-Barre syndrome, eningoencephalitis and myelitis in infected adult. […]
Inconclusive results are not listed. Active and inactive are the calls of the source. Calls come from the whole dose curve; as a rule, active = well fitted inhibition curve with a large enough effect; inconclusive = small, poorly fitted or top-dose-only effect; inactive = no such curve, though single readings can be large or run the other way.
Thanks in advance; please answer with one of these: active, inactive

For O=C(c1ccc(C(=O)N2CCC(N3CCCC3)CC2)c(Nc2ccccc2)c1)N1CCC(N2CCCC2)CC1 , which call appears in the assay record?
inactive

For Cc1cnc(Nc2cccc(CN3CCOCC3)c2)nc1Nc1cccc(S(=O)(=O)NC(C)(C)C)c1 , which call appears in the assay record?
inactive

For CC(=O)Nc1cccc(-n2c(=O)n(C3CC3)c(=O)c3c(Nc4ccc(I)cc4F)n(C)c(=O)c(C)c32)c1 , which call appears in the assay record?
inactive

For CNC1CCC(N(Cc2cccc(-c3ccncc3)c2)C(=O)c2sc3ccccc3c2Cl)CC1 (stereo not drawn) , which call appears in the assay record?
inactive

For O=C(CO)N1CCC(c2[nH]nc(-c3ccc(Cl)cc3)c2-c2ccncn2)CC1 , which call appears in the assay record?
inactive

For O=S(=O)(O)c1ccc2cc(N=Nc3cc(S(=O)(=O)O)c4cccnc4c3O)ccc2c1 , which call appears in the assay record?
active

For Cc1cc(-c2ncc(CC(=O)Nc3ccc(-c4cnccn4)cn3)cc2C)ccn1 , which call appears in the assay record?
inactive

For Nc1ccc(-c2ccc3ncc4ccc(=O)n(-c5cccc(C(F)(F)F)c5)c4c3c2)cn1 , which call appears in the assay record?
inactive

For NS(=O)(=O)c1ccc(Nc2nc(OCC3CCCCC3)c3[nH]cnc3n2)cc1 , which call appears in the assay record?
inactive

For Cc1cc2c(cc1C1(c3ccc(C(=O)O)cn3)CC1)C(C)(C)CCC2(C)C , which call appears in the assay record?
active

For NC(=O)c1noc([C@H](CCCC2CCCCC2)CC(=O)NO)n1 , which call appears in the assay record?
inactive

For CC(C)(OCc1nn(Cc2ccccc2)c2ccccc12)C(=O)O , which call appears in the assay record?
inactive

For Cc1nc2c([nH]1)CCN(C(=O)c1ccc(NC(=O)c3ccccc3-c3ccccc3)cc1)c1ccccc1-2 , which call appears in the assay record?
inactive

For N#Cc1ccc(Oc2ccc3c(c2)COB3O)cc1 , which call appears in the assay record?
inactive

For O[C@@H](COc1cccc2ncccc12)CN1CCN(C2c3ccccc3[C@@H]3[C@H](c4ccccc42)C3(F)F)CC1 (stereo partly drawn) , which call appears in the assay record?
inactive

For Fc1ccc(CNc2ncnc3ccc(F)cc23)cc1 , which call appears in the assay record?
inactive

For CCN(CCO)CCCOc1ccc2c(Nc3cc(CC(=O)Nc4cccc(F)c4)[nH]n3)ncnc2c1 , which call appears in the assay record?
inactive

For CC1(COc2ccc3c(c2)ncn3-c2ccc3cccc(N4CCC(N)CC4)c3n2)COC1 , which call appears in the assay record?
inactive

For CN1c2ccccc2C(=O)N2CCc3c([nH]c4ccccc34)C21 (stereo not drawn) , which call appears in the assay record?
inactive

For CNC(=O)c1ccc2c(C(=Nc3cccc(CN(C)C)c3)c3ccccc3)c(O)[nH]c2c1 , which call appears in the assay record?
inactive

For Nc1ncnc2c1c(-c1cccc(OCc3ccccc3)c1)cn2C1CC(CN2CCC2)C1 (stereo not drawn) , which call appears in the assay record?
inactive

For O=C(Nc1ccc(OC(F)(F)F)cc1)c1sccc1NCc1ccnc2ccccc12 , which call appears in the assay record?
inactive

For CN(C)c1nc(Cc2ccc(NC(=O)c3ccc(C(F)(F)F)cc3)cc2)nc(N(C)C)c1CC(=O)O , which call appears in the assay record?
inactive

For CN1CCN(c2cccc(Nc3nc4c(-c5ccc(S(C)(=O)=O)cc5)cccn4n3)c2)CC1 , which call appears in the assay record?
inactive

For Cn1c(=O)c(-c2c(Cl)cccc2Cl)cc2cnc(Nc3cccc(C(=O)O)c3)nc21 , which call appears in the assay record?
inactive

For CCCCC(F)(F)[C@@]1(O)CC[C@H]2[C@H](CC(=O)[C@@H]2CCCCCCC(=O)O)O1 , which call appears in the assay record?
inactive

For O=c1[nH]nc(OCCCc2ccc(Cl)cc2)c(NCc2cccnc2)c1Br , which call appears in the assay record?
inactive

For C[C@@H]1CCO[C@H]2Cn3cc(C(=O)NCc4ccc(F)cc4F)c(=O)c(O)c3C(=O)N12 , which call appears in the assay record?
inactive
